molecular target: GLP-1R (Homo sapiens, UniProt P43220); construct: host or cells: CRE-bla CHO-K1; test: EC20 GLP-1(9-36) PAM cAMP assay: dose response of compound in the presence of fixed concentration of GLP-1(9-36); format: cell-based; details: GLP-1R CRE-bla CHO-K1 cells, compound dose response in presence of fixed concentration of GLP-1(9-36)
Sequence (P43220 24-463): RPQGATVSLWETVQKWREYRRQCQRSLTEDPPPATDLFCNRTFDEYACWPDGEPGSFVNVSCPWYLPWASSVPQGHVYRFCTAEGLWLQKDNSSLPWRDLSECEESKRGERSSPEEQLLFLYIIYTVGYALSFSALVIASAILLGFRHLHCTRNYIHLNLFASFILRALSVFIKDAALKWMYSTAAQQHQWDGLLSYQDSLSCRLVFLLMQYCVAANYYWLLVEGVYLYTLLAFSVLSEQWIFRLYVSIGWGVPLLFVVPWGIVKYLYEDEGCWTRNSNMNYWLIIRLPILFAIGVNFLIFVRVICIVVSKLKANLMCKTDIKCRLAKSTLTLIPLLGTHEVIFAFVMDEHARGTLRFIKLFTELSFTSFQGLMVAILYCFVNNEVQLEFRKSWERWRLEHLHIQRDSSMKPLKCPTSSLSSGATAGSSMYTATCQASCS
Sequence (P01275 100-127 partner limits assumed): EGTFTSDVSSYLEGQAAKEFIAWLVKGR
property: EC50

[
  {
    "compound": "CC(C)(C)c1ccc(C(=O)N[C@@H](Cc2ccc(-c3noc(-c4ccc(-c5ccc(F)cc5F)cc4)n3)cc2)C(=O)O)cc1 [Compound 24]",
    "subjectOfTest": "GLP-1R (Homo sapiens, UniProt P43220)",
    "experimentalValue": "800 to 2500 nM"
  },
  {
    "compound": "CCCCCCCOc1ccc(-c2cnc(-c3ccc(C[C@H](NC(=O)c4cccc(C#N)c4)C(=O)O)cc3)nc2)cc1 [Compound 105]",
    "subjectOfTest": "GLP-1R (Homo sapiens, UniProt P43220)",
    "experimentalValue": "5000 to 10000 nM"
  },
  {
    "compound": "CN(C)c1ccc(-c2nc(-c3ccc(C[C@H](NC(=O)c4ccc(C(C)(C)C)cc4)C(=O)O)cc3)no2)cc1 [Compound 47]",
    "subjectOfTest": "GLP-1R (Homo sapiens, UniProt P43220)",
    "experimentalValue": "2500 to 5000 nM"
  },
  {
    "compound": "C[C@H](NC(=O)[C@H](Cc1ccc(-c2ncc(-c3ccc(C(C)(C)C)cc3)cn2)cc1)NC(=O)c1ccc(C(C)(C)C)s1)C(=O)O [Compound 364]",
    "subjectOfTest": "GLP-1R (Homo sapiens, UniProt P43220)",
    "experimentalValue": "800 to 2500 nM"
  },
  {
    "compound": "CCCCCCOc1ccc(-c2cnc(-c3ccc(C[C@H](NC(=O)c4ccc(C(C)(C)C)cc4)C(=O)NCC(=O)O)cc3)nc2)cc1 [Compound 318]",
    "subjectOfTest": "GLP-1R (Homo sapiens, UniProt P43220)",
    "experimentalValue": "< 800 nM"
  },
  {
    "compound": "CCCCCCCOc1ccc(-c2cnc(-c3ccc(C[C@H](NC(=O)c4ccc(C(C)(C)C)s4)C(=O)N[C@H](CCC(N)=O)C(=O)O)cc3)nc2)cc1 [Compound 341]",
    "subjectOfTest": "GLP-1R (Homo sapiens, UniProt P43220)",
    "experimentalValue": "< 800 nM"
  },
  {
    "compound": "CC(C)S(=O)(=O)c1ccc(C(=O)N[C@@H](Cc2ccc(-c3ncc(-c4ccc(C(C)(C)C)cc4)cn3)cc2)C(=O)O)cc1 [Compound 181]",
    "subjectOfTest": "GLP-1R (Homo sapiens, UniProt P43220)",
    "experimentalValue": "800 to 2500 nM"
  },
  {
    "compound": "CC(C)(C)c1ccc(C(=O)N[C@@H](Cc2ccc(-c3noc(-c4ccc(O)cc4)n3)cc2)C(=O)O)cc1 [Compound 43]",
    "subjectOfTest": "GLP-1R (Homo sapiens, UniProt P43220)",
    "experimentalValue": "2500 to 5000 nM"
  }
]

Could you tell me which EC50 is on file for CCCCCCCOc1ccc(-c2cnc(-c3ccc(C[C@H](NC(=O)c4ccc(C(C)(C)C)s4)C(=O)O)cc3)nc2)cc1 [Compound 192] ?
< 800 nM

Please give the measured EC50 for this compound: CC(C)(C)c1ccc(C(=O)N[C@@H](Cc2ccc(-c3noc(-c4ccc(-c5ccccc5C#N)cc4)n3)cc2)C(=O)O)cc1 [Compound 31]
800 to 2500 nM

Consider the compound shown here: CCCCCCOc1ccc(-c2cnc(-c3ccc(C[C@H](NC(=O)c4ccc(C(C)(C)C)s4)C(=O)O)cc3)nc2)cc1 [Compound 239] What is its recorded EC50?
800 to 2500 nM

// lookup EC50 for CCCCCCCOc1ccc(-c2cnc(-c3ccc(C[C@H](NC(=O)c4ccc(C(C)(C)C)cc4)C(=O)NCC(=O)O)cc3)nn2)cc1 [Compound 276]
800 to 2500 nM

# query: EC50 of entry CCOc1ccc(-c2cnc(-c3ccc(C[C@H](NC(=O)c4ccc(C(C)(C)C)cc4)C(=O)O)cc3)nc2)cc1 [Compound 221]
2500 to 5000 nM
